FYI, the data here is from patent US20250051338A1.

Examples of compounds with documented DC50 follow.
# tested_on: TYK2 (Homo sapiens, UniProt P29597)
# Sequence (P29597 whole entry): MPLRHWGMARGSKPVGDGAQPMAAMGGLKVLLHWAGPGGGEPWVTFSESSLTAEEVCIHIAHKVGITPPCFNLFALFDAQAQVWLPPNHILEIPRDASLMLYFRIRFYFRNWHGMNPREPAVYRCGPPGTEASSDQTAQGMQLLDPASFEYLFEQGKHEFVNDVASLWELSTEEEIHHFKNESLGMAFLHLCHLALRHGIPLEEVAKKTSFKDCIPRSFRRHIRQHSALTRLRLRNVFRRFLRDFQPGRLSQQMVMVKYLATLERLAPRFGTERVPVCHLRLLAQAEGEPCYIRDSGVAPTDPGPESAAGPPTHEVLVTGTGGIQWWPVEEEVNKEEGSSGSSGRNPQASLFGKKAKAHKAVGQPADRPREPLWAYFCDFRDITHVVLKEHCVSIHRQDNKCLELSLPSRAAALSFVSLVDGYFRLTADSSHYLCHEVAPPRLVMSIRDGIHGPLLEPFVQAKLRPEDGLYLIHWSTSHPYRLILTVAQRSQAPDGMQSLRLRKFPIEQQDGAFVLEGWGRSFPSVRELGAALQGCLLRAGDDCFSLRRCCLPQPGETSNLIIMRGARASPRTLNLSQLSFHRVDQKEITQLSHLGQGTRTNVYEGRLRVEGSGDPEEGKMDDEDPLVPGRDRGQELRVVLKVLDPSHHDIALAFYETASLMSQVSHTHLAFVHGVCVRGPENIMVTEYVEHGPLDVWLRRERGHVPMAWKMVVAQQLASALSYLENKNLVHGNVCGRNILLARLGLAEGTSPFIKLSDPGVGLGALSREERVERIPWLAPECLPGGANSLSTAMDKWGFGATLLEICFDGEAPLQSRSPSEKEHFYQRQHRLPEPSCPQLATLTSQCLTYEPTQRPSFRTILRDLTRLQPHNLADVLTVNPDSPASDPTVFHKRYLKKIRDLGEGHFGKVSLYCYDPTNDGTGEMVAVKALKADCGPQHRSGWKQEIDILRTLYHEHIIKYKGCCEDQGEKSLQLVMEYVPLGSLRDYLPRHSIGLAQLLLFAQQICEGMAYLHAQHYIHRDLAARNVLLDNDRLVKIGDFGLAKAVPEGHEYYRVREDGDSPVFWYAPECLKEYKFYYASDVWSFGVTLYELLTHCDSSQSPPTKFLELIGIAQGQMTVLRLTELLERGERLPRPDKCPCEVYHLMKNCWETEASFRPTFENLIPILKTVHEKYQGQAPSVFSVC
# procedure_details: TYK2 degradation MSD assay in EBV-B cells
# Format: cell-based
# Parameters: endogenous in cells; host or cells: EBV-B cells
# test_context: 4 to 24 hours incubation, read-out: TYK2 MSD DC50 rating in EBV-B

Noted for CNc1cc(Nc2cccn(-c3cccc(C(=O)NCCCCCCCCCCc4ccc5c(c4)n(C)c(=O)n5C4CCC(=O)NC4=O)c3)c2=O)nn2c(C(=O)N[C@@H]3C[C@@H]3F)cnc12 (some centres unmarked) : its DC50 reads > 100 nM

Noted for Cn1c(=O)n(C2CCC(=O)NC2=O)c2ccc(-c3ccc(N4CCN(Cc5ccc(-c6cccc(Nc7cc(C8CC8)c8ncc(C(=O)N[C@@H]9C[C@@H]9F)n8n7)c6)nc5)CC4)cc3)cc21 (some centres unmarked) : its DC50 reads > 100 nM

Noted for CNc1cc(Nc2cccc(-c3ccc(CN4CCN(c5ccc6c(c5)n(C)c(=O)n6C5CCC(=O)NC5=O)CC4)cn3)c2)nn2c(C(=O)N[C@@H]3C[C@@H]3F)cnc12 (some centres unmarked) : its DC50 reads > 100 nM

Noted for CNc1cc(Nc2cccn(-c3ccc(C(=O)N4CCN([C@H]5CC[C@H](c6ccc(-c7ccc8c(c7)n(C)c(=O)n8C7CCC(=O)NC7=O)cc6)CC5)CC4)cn3)c2=O)nn2c(C(=O)N[C@@H]3C[C@@H]3F)cnc12 (some centres unmarked) : its DC50 reads < 1 nM

Noted for CNc1cc(N2CCc3c(N4CCC(CN5CC6(C5)CN(c5ccc(-c7ccc8c(c7)n(C)c(=O)n8C7CCC(=O)NC7=O)cc5)C6)CC4)cccc32)nn2c(C(=O)N[C@@H]3C[C@@H]3F)cnc12 (some centres unmarked) : its DC50 reads > 100 nM

----------
# tested_on: TYK2 (Homo sapiens)
# procedure_details: TYK2 degradation MSD assay in EBV-B cells
# Assay type: cell-based
# Set-up: endogenous in cells; host or cells: EBV-B cells
# test_context: 4 to 24 hours incubation, read-out: TYK2 MSD DC50 rating in EBV-B
Examples of compounds with documented DC50 follow.

Example entries begin here.
CNc1cc(Nc2cccc(-c3ccc(CN4CCN(C(=O)c5ccc(Cl)c(N6CCC(=O)NC6=O)c5)CC4)cn3)c2OC)nn2c(C(=O)N[C@@H]3C[C@@H]3F)cnc12 [Example K489]    > 100 nM
CNc1cc(Nc2cccc(-c3ccc(CN4CC5(CCN(c6cccc7c6n(C)c(=O)n7C6CCC(=O)NC6=O)CC5)C4)cn3)c2)nn2c(C(=O)N[C@@H]3C[C@@H]3F)cnc12 (some centres unmarked) [Example K510]    1 to 10 nM
CCNC(=O)c1cnc(Nc2cc(CN3CCN(c4ccc5c(c4)n(C)c(=O)n5C4CCC(=O)NC4=O)CC3)ccn2)cc1Nc1cccc(-c2ncc(F)cn2)c1OC (centres unmarked) [Example K709]    1 to 10 nM
CNc1cc(N2CCc3c(-c4ccc(CN5CCN(c6ccc(-c7ccc8c(c7)n(C)c(=O)n8C7CCC(=O)NC7=O)cc6)CC5)cn4)cccc32)nn2c(C(=O)N[C@@H]3C[C@@H]3F)cnc12 (some centres unmarked) [Example K505]    10 to 100 nM

--- query ---
Noted for Cn1c(=O)n(C2CCC(=O)NC2=O)c2ccc(CN3CCC(CNc4cc(Nc5cccn(-c6ccccn6)c5=O)nn5c(C(=O)N[C@@H]6C[C@@H]6F)cnc45)CC3)cc21 (some centres unmarked) [Example K360] : its DC50 reads > 100 nM
